- System: NCI-H2009
- PROTOCOL NOTES: relative viability (nuclei count vs DMSO), 5 days (fraction); higher = more cells survive
- DETAILS: first compound 0.8 µM
Label key: condition met means relative viability under 0.8; condition not met means relative viability of 0.8 or more.

COMPOUND | ASSIGNED LABEL
COc1nc(C)cnc1NS(=O)(=O)c1cccnc1-c1ccc(-c2nnco2)cc1 [Zibotentan] + N=C(N)NC(=N)NCCc1ccccc1 [Phenformin] (partner 250 µM) | condition met
O=c1cc(-c2cccc3c2Sc2ccccc2S3)oc(N2CCOCC2)c1 + O=C(CCCCCCC(=O)Nc1ccccc1)NO [Vorinostat] (partner 1 µM) | condition met
COc1nc(C)cnc1NS(=O)(=O)c1cccnc1-c1ccc(-c2nnco2)cc1 [Zibotentan] + CCNC(=O)c1noc(-c2cc(C(C)C)c(O)cc2O)c1-c1ccc(CN2CCOCC2)cc1 [Luminespib] (partner 0.01 µM) | condition not met
O=c1cc(-c2cccc3c2Sc2ccccc2S3)oc(N2CCOCC2)c1 + CC(=O)Nc1cccc(-n2c(=O)n(C3CC3)c(=O)c3c(Nc4ccc(I)cc4F)n(C)c(=O)c(C)c32)c1 [Trametinib] (partner 0.02 µM) | condition met

###

- Test system: NCI-H2126
- PROTOCOL NOTES: relative viability (nuclei count vs DMSO), 5 days (fraction); higher = more cells survive
- DETAILS: first compound 0.1 µM
Overview of reported relative viability across a group of compounds:
EXPERIMENTAL READOUT: relative viability

COMPOUND | EXPERIMENTAL READOUT | OBSERVED MEASUREMENT
CCN(CC)CCCCNc1ncc2cc(-c3cc(OC)cc(OC)c3)c(NC(=O)NC(C)(C)C)nc2n1 + N=C(N)NC(=N)NCCc1ccccc1 [Phenformin] (partner 250 µM) | relative viability | 0.551
CCN(CC)CCCCNc1ncc2cc(-c3cc(OC)cc(OC)c3)c(NC(=O)NC(C)(C)C)nc2n1 + NC(=O)Nc1cc(-c2cccc(F)c2)sc1C(=O)N[C@H]1CCCNC1 [AZD7762] (partner 0.2 µM) | relative viability | 1.15
O=c1cc(N2CCOCC2)oc2c(-c3cccc4c3sc3ccccc34)cccc12 + COc1cccc2cc(-c3nc([C@H]4CC[C@H](C(=O)O)CC4)n4ncnc(N)c34)[nH]c12 [OSI-027] (partner 0.5 µM) | relative viability | 0.706
O=c1cc(N2CCOCC2)oc2c(-c3cccc4c3sc3ccccc34)cccc12 + Nc1ncn([C@H]2C[C@H](O)[C@@H](CO)O2)c(=O)n1 [Decitabine] (partner 2 µM) | relative viability | 0.601
CCN(CC)CCCCNc1ncc2cc(-c3cc(OC)cc(OC)c3)c(NC(=O)NC(C)(C)C)nc2n1 + CS(=O)(=O)CCNCc1ccc(-c2ccc3ncnc(Nc4ccc(OCc5cccc(F)c5)c(Cl)c4)c3c2)o1 [Lapatinib] (partner 2 µM) | relative viability | 0.796
O=c1cc(N2CCOCC2)oc2c(-c3cccc4c3sc3ccccc34)cccc12 + O=C(c1cc(Cc2n[nH]c(=O)c3ccccc23)ccc1F)N1CCN(C(=O)C2CC2)CC1 [Olaparib] (partner 8 µM) | relative viability | 0.938
O=c1cc(N2CCOCC2)oc2c(-c3cccc4c3sc3ccccc34)cccc12 + COc1cc2c(Oc3ccc(NC(=O)C4(C(=O)Nc5ccc(F)cc5)CC4)cc3F)ccnc2cc1OCCCN1CCOCC1 [Foretinib] (partner 0.25 µM) | relative viability | 1.29
CCN(CC)CCCCNc1ncc2cc(-c3cc(OC)cc(OC)c3)c(NC(=O)NC(C)(C)C)nc2n1 + CC1(C)CCC(c2ccc(Cl)cc2)=C(CN2CCN(c3ccc(C(=O)NS(=O)(=O)c4ccc(N[C@H](CCN5CCOCC5)CSc5ccccc5)c(S(=O)(=O)C(F)(F)F)c4)cc3)CC2)C1 [Navitoclax] (partner 0.5 µM) | relative viability | 0.916
CCN(CC)CCCCNc1ncc2cc(-c3cc(OC)cc(OC)c3)c(NC(=O)NC(C)(C)C)nc2n1 + Cc1nc(NC(=O)N2CCC[C@H]2C(N)=O)sc1-c1ccnc(C(C)(C)C(F)(F)F)c1 [Alpelisib] (partner 2 µM) | relative viability | 0.742
O=c1cc(N2CCOCC2)oc2c(-c3cccc4c3sc3ccccc34)cccc12 + NC(=O)Nc1cc(-c2cccc(F)c2)sc1C(=O)N[C@H]1CCCNC1 [AZD7762] (partner 0.2 µM) | relative viability | 1.12

Cited source for all entries: the supplement of paper PMC10307832
